MEASUREMENT_TARGET: Human B0AT1 (Homo sapiens (Human), UniProt Q695T7)
Sequence (Q695T7 whole entry): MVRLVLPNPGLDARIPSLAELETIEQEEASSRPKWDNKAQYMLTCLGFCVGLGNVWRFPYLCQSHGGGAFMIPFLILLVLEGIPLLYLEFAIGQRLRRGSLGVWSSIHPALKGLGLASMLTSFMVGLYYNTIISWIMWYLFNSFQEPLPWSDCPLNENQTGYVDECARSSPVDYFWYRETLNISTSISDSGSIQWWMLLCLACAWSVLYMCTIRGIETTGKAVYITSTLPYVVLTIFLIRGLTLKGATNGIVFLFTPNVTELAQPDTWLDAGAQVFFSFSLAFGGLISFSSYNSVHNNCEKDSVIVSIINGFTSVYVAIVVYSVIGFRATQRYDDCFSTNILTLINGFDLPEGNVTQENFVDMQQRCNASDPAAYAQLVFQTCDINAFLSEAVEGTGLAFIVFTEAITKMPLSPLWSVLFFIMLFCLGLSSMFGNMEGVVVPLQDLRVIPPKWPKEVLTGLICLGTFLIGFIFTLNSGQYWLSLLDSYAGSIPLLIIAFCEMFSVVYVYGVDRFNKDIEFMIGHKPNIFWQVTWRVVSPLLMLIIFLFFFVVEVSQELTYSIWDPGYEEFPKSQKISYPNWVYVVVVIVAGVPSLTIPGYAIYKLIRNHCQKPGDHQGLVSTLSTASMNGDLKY
EXPERIMENT_NOTES: hB0AT1 inhibitory test (phenylalanine uptake)
MEASUREMENT_CONTEXT: Human B0AT1 stable expression CHO cells; [3H]-L-phenylalanine uptake, phenylalanine 0.25 mM
RESULT_TYPE: IC50 (µM)

Known results for molecules:
molecule=CCOC(=O)N1CCN(C(=O)CNC(=O)/C=C/c2ccc(C(F)(F)F)cc2)CC1 result_unit=µM val=0.72
molecule=CN1CCN(C(=O)CNC(=O)/C=C/c2ccc(C3CC3)cc2)CC1 result_unit=µM val=0.098
molecule=O=C(/C=C/c1ccc(C(F)(F)F)cc1)NCC(=O)N1C[C@H](O)C[C@@H]1c1ccccc1 result_unit=µM val=1.72
molecule="O=C(/C=C/c1ccc(C(F)(F)F)cc1)NCC(=O)N1Cc2ccccc2C(c2ccccc2)C1 (centres unmarked)" result_unit=µM val=0.08
molecule=O=C(/C=C/c1ccc(C(F)(F)F)cc1)NCC(=O)N1CCc2n[nH]c(=O)cc2C1 result_unit=µM val=0.053

A: CNC(=O)CC(COC)N(CCOC)C(=O)CNC(=O)/C=C/c1ccc(C(F)(F)F)cc1 (centres unmarked)
B: O=C(/C=C/c1ccc(C(F)(F)F)cc1)NCC(=O)N1Cc2nc[nH]c2C1
C: O=C(/C=C/c1ccc(C(F)(F)F)cc1)NCC(=O)N1CCc2cccc(C(F)(F)F)c2C1
D: O=C(/C=C/c1ccc(C(F)(F)F)cc1)NCC(=O)N1CC[C@H](Cn2cccn2)C1
E: CN(C)C(=O)c1cnn2c1CN(C(=O)CNC(=O)/C=C/c1ccc(C(F)(F)F)cc1)CC2
Query block: Hello, I need these entries ordered by IC50, highest reading first. Thanks! Your answer should be the labels, listed in the requested order.
Result block: A, B, D, E, C
(A: 0.486 µM, B: 0.164 µM, D: 0.108 µM, E: 0.067 µM, C: 0.031 µM)

P: Cc1nnc(CN(CC2(F)CCC2)C(=O)CNC(=O)/C=C/c2ccc(C(F)(F)F)cc2)o1
Q: COC1CN(C(=O)CNC(=O)/C=C/c2ccc(C(F)(F)F)cc2)Cc2ccc(Br)cc21 (centres unmarked)
R: O=C(/C=C/c1ccc(C(F)(F)F)cc1)NCC(=O)N1Cc2ncsc2C1
S: O=C(/C=C/c1ccc(C(F)(F)F)cc1)NCC(=O)N1CCCC(n2cccn2)C1 (centres unmarked)
T: COCCN(CC(=O)N(C)C)C(=O)CNC(=O)/C=C/c1ccc(C(F)(F)F)cc1
Query block: Hey, quick one: sort these by IC50, low to high? Use the labels to give the ranking in the order requested.
Result block: P, R, Q, T, S
(P: 0.043 µM, R: 0.077 µM, Q: 0.114 µM, T: 0.17 µM, S: 1.31 µM)

###

MEASUREMENT_TARGET: Human B0AT1 (Homo sapiens (Human), UniProt Q695T7)
EXPERIMENT_NOTES: hB0AT1 inhibitory test (phenylalanine uptake)
MEASUREMENT_CONTEXT: Human B0AT1 stable expression CHO cells; [3H]-L-phenylalanine uptake, phenylalanine 0.25 mM
RESULT_TYPE: IC50 (nM)

Please review the following examples before continuing.
compound=O=C(/C=C/c1ccc(C(F)(F)F)cc1)NCC(=O)N1Cc2ccnn2C[C@@H]1C(=O)O result_type=IC50 result_unit=nM val=361
compound=NS(=O)(=O)c1ccc2c(c1)CCN(C(=O)CNC(=O)/C=C/c1ccc(C(F)(F)F)cc1)C2 result_type=IC50 result_unit=nM val=43
compound=O=C(/C=C/c1ccc(C(F)(F)F)cc1)NCC(=O)N1CCc2ccc(Br)cc2C1 result_type=IC50 result_unit=nM val=54
compound=CCCOc1ccc(/C=C/C(=O)NCC(=O)N2CCN(C)CC2)cc1 result_type=IC50 result_unit=nM val=104

I: CN1CCN(C(=O)CNC(=O)/C=C/c2ccc(-c3cc(F)c(F)c(F)c3)cc2)CC1
II: COCC1Cn2ncnc2CN1C(=O)CNC(=O)/C=C/c1ccc(C(F)(F)F)cc1 (stereo not drawn)
III: CNC(=O)[C@H]1CN(C)CCN1C(=O)CNC(=O)/C=C/c1ccc(C(F)(F)F)cc1
IV: CC1CCN(C(=O)CNC(=O)/C=C/c2ccc(C(F)(F)F)cc2)c2ccnn21 (stereo not drawn)
V: O=C(/C=C/c1ccc(C(F)(F)F)cc1)NCC(=O)N1CCc2cccc(Br)c2C1
Query block: Put the compounds in ascending order of IC50. Returns: the labels listed in the requested order.
Result block: V, IV, I, III, II
